The reported numbers originate from ChEMBL document CHEMBL3112576.

Heads up, these compounds all have pIC50 values measured for Acetylcholinesterase (Electrophorus electricus).
In textbook form, pIC50 equals minus log to base ten of the concentration in mol/L.

// below: answered compounds
1. COc1cc2[se]n(-c3ccc(OCCN4CCCCC4)cc3)c(=O)c2cc1OC 6.34
2. COc1cc2[se]n(-c3ccc(CN4CCCCC4)cc3)c(=O)c2cc1OC 6.12
3. COc1cc2[se]n(-c3ccc(CCN4CCCC4)cc3)c(=O)c2cc1OC 5.36
4. COc1cc2[se]n(-c3ccc(CN4CCCC4)cc3)c(=O)c2cc1OC 5.97
5. COc1cc2[se]n(-c3ccc(CCN4CCCCC4)cc3)c(=O)c2cc1OC 5.41

# pIC50 measured on Acetylcholinesterase (Electrophorus electricus) for item `O=c1c2ccccc2[se]n1-c1ccc(CN2CCCCC2)cc1` = 5.63

----------
TEST_TARGET: Acetylcholinesterase (Homo sapiens, UniProt P22303)
Sequence (P22303 whole entry): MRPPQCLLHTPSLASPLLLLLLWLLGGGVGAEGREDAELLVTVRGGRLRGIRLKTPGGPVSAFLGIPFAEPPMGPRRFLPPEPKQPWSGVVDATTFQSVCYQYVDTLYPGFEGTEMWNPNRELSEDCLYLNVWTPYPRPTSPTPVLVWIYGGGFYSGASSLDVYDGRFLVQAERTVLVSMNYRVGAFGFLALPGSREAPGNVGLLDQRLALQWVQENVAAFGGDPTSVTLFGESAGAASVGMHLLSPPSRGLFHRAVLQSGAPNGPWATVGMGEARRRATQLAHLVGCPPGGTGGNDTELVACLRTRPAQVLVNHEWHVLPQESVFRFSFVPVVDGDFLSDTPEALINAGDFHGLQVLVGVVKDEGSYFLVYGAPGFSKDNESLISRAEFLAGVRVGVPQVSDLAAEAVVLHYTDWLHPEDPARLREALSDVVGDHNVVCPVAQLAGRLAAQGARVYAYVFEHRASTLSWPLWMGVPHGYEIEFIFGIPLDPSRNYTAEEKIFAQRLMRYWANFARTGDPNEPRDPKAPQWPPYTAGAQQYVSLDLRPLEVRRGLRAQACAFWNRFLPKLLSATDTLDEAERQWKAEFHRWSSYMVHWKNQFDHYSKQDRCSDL
ENDPOINT: log10 IC50 (log10 of the value in µM)
A value of 2 here means IC50 of 100 in µM, since values are log10.

Observe how each entry below is paired with its result.
1. O=c1c2ccccc2[se]n1-c1ccc(CN2CCCCC2)cc1 1.03
2. COc1cc2[se]n(-c3ccc(OCCCN4CCCCC4)cc3)c(=O)c2cc1OC 0.71
3. COc1cc2[se]n(-c3ccc(CCN4CCCCC4)cc3)c(=O)c2cc1OC 1.02

Value sought: log10 IC50, system Acetylcholinesterase (Homo sapiens, UniProt P22303), item `COc1cc2[se]n(-c3ccc(CCN4CCCC4)cc3)c(=O)c2cc1OC` . Result: 1.14

Entry `COc1cc2[se]n(-c3ccc(CN4CCCCC4)cc3)c(=O)c2cc1OC` , Acetylcholinesterase (Homo sapiens, UniProt P22303) data, log10 IC50 value: 0.16

Tested on Acetylcholinesterase (Homo sapiens, UniProt P22303), the item `O=c1c2ccccc2[se]n1-c1ccc(OCCN2CCCCC2)cc1` showed log10 IC50 equal to 1.04

Simply: `COc1cc2[se]n(-c3ccc(OCCN4CCCCC4)cc3)c(=O)c2cc1OC` , Acetylcholinesterase (Homo sapiens, UniProt P22303), log10 IC50 = -0.35

Measured log10 IC50 (Acetylcholinesterase (Homo sapiens, UniProt P22303)), entry `COc1cc2[se]n(-c3ccc(OCCCCN4CCCCC4)cc3)c(=O)c2cc1OC` : 0.53

The reported log10 IC50 value, Acetylcholinesterase (Homo sapiens, UniProt P22303), for `COc1cc2[se]n(-c3ccc(CN4CCCC4)cc3)c(=O)c2cc1OC` reads 0.63

----------
IC50 values recorded for Acetylcholinesterase (Electrophorus electricus, UniProt O42275)
All answers are understood in µM, so give the number only.

1) COc1cc2[se]n(-c3ccc(OCCCN4CCCCC4)cc3)c(=O)c2cc1OC 4.5

Case `COc1cc2[se]n(-c3ccc(CN(C)Cc4ccccc4)cc3)c(=O)c2cc1OC` , Acetylcholinesterase (Electrophorus electricus, UniProt O42275), IC50 recorded as 1.71

Reported IC50 (Acetylcholinesterase (Electrophorus electricus, UniProt O42275)) for entry `O=c1c2ccccc2[se]n1-c1ccc(OCCN2CCCCC2)cc1` is 5.66

The compound `COc1cc2[se]n(-c3ccc(OCCCCN4CCCCC4)cc3)c(=O)c2cc1OC` , tested on Acetylcholinesterase (Electrophorus electricus, UniProt O42275), showed IC50 of 4.32

----------
Entries and their IC50
TEST_TARGET: Cholinesterase (Equus caballus)

1) COc1cc2[se]n(-c3ccc(CN4CCCCC4)cc3)c(=O)c2cc1OC > 15 µM

Now for the compound whose IC50 we want.
Measured IC50, `COc1cc2[se]n(-c3ccc(CN4CCCC4)cc3)c(=O)c2cc1OC` : 13.4 µM

----------
TEST_TARGET: Acetylcholinesterase (Homo sapiens)
pIC50: −log10 of the molar value.
We begin with a simple list: items and their reported pIC50.

Field: example entries. Status: answers known.
MOLECULE	TEST_TARGET	ENDPOINT	ENDPOINT_VALUE
O=c1c2ccccc2[se]n1-c1ccccc1 [EBSELEN]	Acetylcholinesterase (Homo sapiens)	pIC50	< 4.82
COc1cc2[se]n(-c3ccc(CN(C)Cc4ccccc4)cc3)c(=O)c2cc1OC	Acetylcholinesterase (Homo sapiens)	pIC50	< 4.82

Proceed to the following item.
The recorded pIC50 with Acetylcholinesterase (Homo sapiens) for `O=c1c2ccccc2[se]n1-c1ccc(CCN2CCCC2)cc1` was < 4.82

----------
The reader will find pIC50 measurements below, all made with Cholinesterase (Equus caballus, UniProt P81908).
Sequence (P81908 whole entry): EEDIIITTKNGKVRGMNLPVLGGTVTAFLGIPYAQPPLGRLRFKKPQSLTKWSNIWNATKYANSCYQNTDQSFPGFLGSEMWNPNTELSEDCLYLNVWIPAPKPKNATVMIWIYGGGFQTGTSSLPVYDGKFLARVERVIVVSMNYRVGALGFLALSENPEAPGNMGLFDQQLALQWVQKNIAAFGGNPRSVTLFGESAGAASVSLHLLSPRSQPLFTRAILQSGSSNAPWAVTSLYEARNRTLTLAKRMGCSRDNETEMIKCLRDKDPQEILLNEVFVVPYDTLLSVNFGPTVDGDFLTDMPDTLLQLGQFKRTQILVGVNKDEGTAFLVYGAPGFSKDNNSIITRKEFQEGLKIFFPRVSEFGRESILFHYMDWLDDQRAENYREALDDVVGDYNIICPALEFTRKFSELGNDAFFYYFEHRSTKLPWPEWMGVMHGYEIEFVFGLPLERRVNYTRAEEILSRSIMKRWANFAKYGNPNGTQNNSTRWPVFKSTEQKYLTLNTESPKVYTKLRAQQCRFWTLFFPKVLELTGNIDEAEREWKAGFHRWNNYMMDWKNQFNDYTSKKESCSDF
Here pIC50 is given on a logarithmic scale as minus log10 of the concentration in mol/L.

Worked cases, answers included:
1) O=c1c2ccccc2[se]n1-c1ccccc1 4.98
2) O=c1c2ccccc2[se]n1-c1ccc(CN2CCCCC2)cc1 5.25
3) COc1cc2[se]n(-c3ccc(OCCCN4CCCCC4)cc3)c(=O)c2cc1OC 5.24
4) COc1cc2[se]n(-c3ccc(CN(C)Cc4ccccc4)cc3)c(=O)c2cc1OC 5.44
5) COc1cc2[se]n(-c3ccc(OCCN4CCCCC4)cc3)c(=O)c2cc1OC 5.01

// sample `COc1cc2[se]n(-c3ccc(OCCCCN4CCCCC4)cc3)c(=O)c2cc1OC` , its pIC50 was 5.24

Record `O=c1c2ccccc2[se]n1-c1ccc(OCCN2CCCCC2)cc1` , field pIC50: 5.71

Looking up `O=c1c2ccccc2[se]n1-c1ccc(CCN2CCCC2)cc1` , I see its pIC50 listed as 5.20
